Each entry below carries its recorded hGLP1R cAMP EC50 ratio.
Biological target: human GLP-1 receptor (GLP-1R) (human, UniProt P43220 24-463)
Assay: cell-based or functional assay
Would you mind answering with just the numeric figure?

The cases that follow already have their hGLP1R cAMP EC50 ratio on record.
XXEGTFTSDYSIXLDXKAQXAFIEXLIAGGPSSGAPPPS (D-Tyr1; Aib2; αMeL13; Orn16; K17 conjugated to (2-[2-(2-Amino-ethoxy)-ethoxy]-acetyl)2-(γ-Glu)-CO-(CH2)18-CO2H; Aib20; αMeY25; C-terminal amide (NH2))
0.074
XXEGTFTSDYSIXLDKKAQXAFIEXLIAGGPSSGAPPPS (D-Tyr1; Aib2; αMeL13; K17 conjugated to (2-[2-(2-Amino-ethoxy)-ethoxy]-acetyl)-(γ-Glu)-CO-(CH2)18-CO2H; Aib20; αMeY25; C-terminal amide (NH2))
0.0621
XXEGTFTSDYSIXLDXKAQXEFIEXLIAGGPSSGAPPPS (D-Tyr1; Aib2; αMeL13; Orn16; K17 conjugated to (2-[2-(2-Amino-ethoxy)-ethoxy]-acetyl)2-(γ-Glu)-CO-(CH2)16-CO2H; Aib20; αMeY25; C-terminal amide (NH2))
0.178
XXEGTFTSDYSIXLDXKAQXAFIXYLIAGGPSSGAPPPS (D-Tyr1; Aib2; αMeL13; Orn16; K17 conjugated to (2-[2-(2-Amino-ethoxy)-ethoxy]-acetyl)2-(γ-Glu)-CO-(CH2)16-CO2H; Aib20; C-terminal amide (NH2))
0.146
XXEGTFTSDYSIXLDKKAQXEFIEYLIAGGPSSGAPPPS (D-Tyr1; Aib2; αMeL13; K17 conjugated to (2-[2-(2-Amino-ethoxy)-ethoxy]-acetyl)-(γ-Glu)-CO-(CH2)18-CO2H; Aib20; C-terminal amide (NH2))
0.142

// query hGLP1R cAMP EC50 ratio value for entry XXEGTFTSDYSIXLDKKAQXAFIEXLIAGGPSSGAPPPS (D-Tyr1; Aib2; αMeL13; K17 conjugated to (2-[2-(2-Amino-ethoxy)-ethoxy]-acetyl)2-(γ-Glu)-CO-(CH2)18-CO2H; Aib20; αMeY25; C-terminal amide (NH2))
0.155
